Source of measurements: the RNAGym collection of RNA variant scans (doi:10.1073/pnas.2313332121)

B1: TPR t1 (parent)
chain: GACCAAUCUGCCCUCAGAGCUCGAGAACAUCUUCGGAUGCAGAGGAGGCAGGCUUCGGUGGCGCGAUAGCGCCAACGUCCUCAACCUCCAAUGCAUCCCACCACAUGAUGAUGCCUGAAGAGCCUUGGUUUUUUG

variants of: B1; test: polymerase ribozyme fitness, log enrichment relative to wild type (log ratio); higher = more active; in vitro selection for triplet polymerase activity
Classify as follows. Reported polymerase ribozyme fitness (log ratio) greater than or equal to -1: condition met. Reported polymerase ribozyme fitness (log ratio) below: condition not met.

sequence_input	assigned_category
GACCCAUCUGGCCUCAGAGCUCGAGAACAUCUUCGUAUGCAGAAGAGGCAGGCUUAGGUGGCGCGAUAGCGCCAACGUCCUCAACCUCCAAUGCAUCCCACCACAUGAUGAAGCCUGAAGAGCCUUGGUUUUUUG [A5C C11G G36U G44A C56A U112A]	condition not met
GACCAAUCUGCCCUCAGAGCUCGAGAACAUCUUAGGAUGCAGAGGAGGCAGGCAUCGGUGGCGCGAUAGCGCCAACGUCCUCAACCUCCAAUGCAUCCCACCACAUGAUGAUGCCUGAAGAGCCUUGGUUUUUUG [C34A U54A]	condition not met
GACCAAUCUGCCCUCAGAGCUCGAGAACAUCUUCGGAUGCAAAGUAGGCAGGCUUCGGUGGCGCGAUGGCGCCAACGUCCUUAACCUCUUAUGCAUCCCACCACAUGAUGAUGCCUGGAGAGCCUUGGUUUUUUG [G42A G45U A68G C82U C89U A90U A118G]	condition not met

Does GACCAAUCUGCCCUCAGAGCUCGAGAACAUCUUCGGAUGCAGAGGAGUCAGGCCUCGGUGGCGCGAUAGCGCCAACGUCCUCAACCUCCAAUGCAUCCCAUCACAUGAUGAUGCCUGAAGAGCCUUGGUGUUUUG [G48U U54C C101U U130G] have a reported polymerase ribozyme fitness (log ratio) of at least -1?
condition not met

GACCAAUCUGCCCUCAGAGCUCGAGAACAUCUUCGGAUGCAUAGGAGGCAGGUUUCGGUUGCGCGAUAGCGCCAACGUCCUCAACCUCCAAUGCAUCCCACCACAUGAUUAUGCCUGAAGAGCCUUGGUUUUUUG [G42U C53U G60U G110U] , same question.
condition not met

Another variant to check: GACCAAUCUGCCCUCAGAGCUCGAGAACAUCUUCGGAUGCAGAUGAGGCAGGCUUCGGUGGCGCGAUAGAGCCAACGUCCUCAACCUCCAAUGCAUCCCACCACAUGAUGAUGCCUGAAGAGCCUUGGUUUUUUG [G44U C70A]
condition not met
